Where do these numbers come from? They come from ChEMBL document CHEMBL5303300.

System: HEK-293T
Experiment: Multiplex assay against HEK293T
Assay type: toxicity, cell-based
Details: human, 48 h, 1 µM, compound concentration 1 uM, number of replicates 2
reported.metric: Population Tubulin-Different-Phenotype (%)

> print(dat)
                                   molecule  observed.result
1  CC1=C(C)C(=O)C(C(CCCCCC(=O)O)c2ccccc2)=C(C)C1=O (centres undefined)                5
2  CNS(=O)(=O)c1ccc(N(C)C)c(Nc2ncnc3cc(OC)c(OC)cc23)c1                5
3  CN1CCc2cc(Nc3ncc(C(F)(F)F)c(NCc4cc[nH]n4)n3)ccc2C1               36
4  CC(C)N1CCN(Cc2cnc(-c3cc(-c4cccc5[nH]ccc45)cc4[nH]ncc34)o2)CC1               19

---

This section presents compounds with their documented Population Normal (%) values.
Test system: Fibroblast
Experiment: Multiplex assay against human fibroblast
Type: toxicity, cell-based
Details: 12 h, 10 µM, compound concentration 10 uM, number of replicates 2
reported.metric: Population Normal (%)

> print(dat)
                                    compound  assay.target        reported.metric  observed.result
 1  Cn1cc(-c2ccc(-c3cncc(Cl)c3N3CCC4(CCNC4=O)CC3)cc2)cn1    Fibroblast  Population Normal (%)             100%
 2  CC(C)NC(=O)[C@H]1CCC[C@H]1Nc1nc(Nc2ccc(C(=O)N(C)C3CCN(C)CC3)cc2)ncc1Cl    Fibroblast  Population Normal (%)             100%
 3      CC(C)c1cc(-c2ccc(F)c3ccccc23)nc(N)n1    Fibroblast  Population Normal (%)             100%
 4  COc1ccncc1C(=O)NC(=O)Nc1ccc(-c2ccccc2)c(C(F)(F)F)c1    Fibroblast  Population Normal (%)             100%
 5          CN(C)CCCNc1ccnc(Nc2cccc(Cl)c2)n1    Fibroblast  Population Normal (%)              99%
 6  Cc1cn(CCN2CCN(c3ccccc3-c3cc(C#N)cc(C(=O)NCCCN4CCCC4)c3)CC2)c2ccccc12    Fibroblast  Population Normal (%)             100%
 7  O=C(Nc1ccnc(NC(=O)C2CC2)c1)c1c(Cl)cccc1Cl    Fibroblast  Population Normal (%)             100%
 8     O=C1NC(=NCc2cccs2)SC1=Cc1ccc2ncccc2c1    Fibroblast  Population Normal (%)             100%
 9  CC1=C(C)C(=O)C(C(CCCCCC(=O)O)c2ccccc2)=C(C)C1=O (stereo not given)    Fibroblast  Population Normal (%)             100%
10  CSc1cc2c(cc1C(F)(F)F)N(C(=O)Nc1cccnc1)CC2    Fibroblast  Population Normal (%)             100%

---

Test system: HEK-293T
Assay: Multiplex assay against HEK293T
Assay type: toxicity, cell-based
Settings: human, 48 h, 1 µM, compound concentration 1 uM, number of replicates 2
reported.metric: Population Pyknosed Nuclei (%)

> print(dat)
                                   molecule                 reported.metric  unit.of.measurement  observed.result
1  O=C(Nc1ccnc(NC(=O)C2CC2)c1)c1c(Cl)cccc1Cl  Population Pyknosed Nuclei (%)                    %                4
2  COc1ccc(F)c(F)c1C(=O)c1cnc(NC2CCN(S(C)(=O)=O)CC2)nc1N [RG-547]  Population Pyknosed Nuclei (%)                    %                1
3  COc1ccccc1-c1cc(Nc2cccc(CS(N)(=O)=O)c2)ncn1  Population Pyknosed Nuclei (%)                    %                3
4  COc1cc(N(C)c2ccnc3ccc(C(F)(F)F)cc23)cc(OC)c1OC  Population Pyknosed Nuclei (%)                    %                3
5  CSc1cc2c(cc1C(F)(F)F)N(C(=O)Nc1cccnc1)CC2  Population Pyknosed Nuclei (%)                    %                2
6     O=C1NC(=NCc2cccs2)SC1=Cc1ccc2ncccc2c1  Population Pyknosed Nuclei (%)                    %                3
7  NC(=O)c1ccc(-c2nc(-c3ccc4c(c3)OCCO4)c(-c3ccccn3)[nH]2)cc1  Population Pyknosed Nuclei (%)                    %                2
8  COc1ccncc1C(=O)NC(=O)Nc1ccc(-c2ccccc2)c(C(F)(F)F)c1  Population Pyknosed Nuclei (%)                    %                3
